# Target or system: hGLP-1R (Homo sapiens, UniProt P43220)
# Sequence (P43220 24-463): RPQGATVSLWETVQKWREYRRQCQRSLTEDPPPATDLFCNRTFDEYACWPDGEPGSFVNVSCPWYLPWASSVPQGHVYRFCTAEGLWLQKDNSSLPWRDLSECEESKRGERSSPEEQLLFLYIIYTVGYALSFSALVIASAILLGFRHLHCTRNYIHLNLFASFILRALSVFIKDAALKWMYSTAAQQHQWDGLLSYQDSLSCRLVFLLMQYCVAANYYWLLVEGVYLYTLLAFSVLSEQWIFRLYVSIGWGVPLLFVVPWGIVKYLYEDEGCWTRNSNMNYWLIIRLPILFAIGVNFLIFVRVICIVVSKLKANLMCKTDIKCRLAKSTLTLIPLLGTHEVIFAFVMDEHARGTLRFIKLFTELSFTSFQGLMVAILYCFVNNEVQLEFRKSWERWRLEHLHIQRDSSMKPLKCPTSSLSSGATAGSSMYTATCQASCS
# Experiment description: Functional cAMP activation in the presence of 0.1% casein (no HSA);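 note: intracellular cAMP rise after 30 min at 37 °C read by HTRF, normalized between buffer only (0%) and maximal control ligand (100%), four-parameter variable-slope fit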
# Format: cell-based
# Condition: read-out: Relative cAMP EC50, hGLP-1R
Starred links: 1 amine or outer side, 2 acyl side, 3 side chain; linkers in the order of their positions; H or OH if unused. Non-standard residues stand in square brackets, D forms with d. Groups on a side chain read outwards from the residue. No end group written: not given here. *: point of attachment. C18 diacid = O=C(O)CCCCCCCCCCCCCCCCC(=O)*; αMePhe(2-F) = C[C@](N)(Cc1ccccc1F)C(=O)O; γGlu = O=C(O)[C@H](CCC(=O)[*:2])N[*:1]; αMe4Pal = C[C@](N)(Cc1ccncc1)C(=O)O; αMeY = C[C@](N)(Cc1ccc(O)cc1)C(=O)O; 4Pal = N[C@@H](Cc1ccncc1)C(=O)O; αMeL = CC(C)C[C@](C)(N)C(=O)O; αMeS = C[C@](N)(CO)C(=O)O; Orn = NCCC[C@H](N)C(=O)O; AEEA = NCCOCCOCC(=O)O; Aib = CC(C)(N)C(=O)O
Exercise: for every item that follows, state its recorded pEC50.
Entry type: numeric. Quantity: pEC50, the -log10 of concentration in molar units.

Y[Aib]QGT[αMePhe(2-F)]TSD[4Pal]SI[αMeL]LD[Orn]K([AEEA-γGlu-C18 diacid])AQ[αMe4Pal][Orn]FI[dE][αMeY]LIEGGPSSGAPPPEGGGE-NH2 [Example 758] yielded pEC50 of 9.71

H-Y[Aib]QGT[αMePhe(2-F)]TSDYSILLDKK([AEEA-γGlu-C18 diacid])AQ[Aib]AFIEFLEEGGPSSGAPPPSEG-NH2 [Example 412] yielded pEC50 of 9.55

H-Y[Aib]QGT[αMePhe(2-F)]TSD[4Pal][αMeS]I[αMeL]LD[Orn]K([γGlu-γGlu-C18 diacid])AQ[Aib]NFI[dE][αMeY]LQEGGPSSGEPPPEGTGE-NH2 [Example 527] yielded pEC50 of 9.35

H-Y[Aib]QGT[αMePhe(2-F)]TSD[4Pal][αMeS]I[αMeL]LD[Orn]K([γGlu-γGlu-C18 diacid])AQ[Aib][Orn]FI[dE][αMeY]LQEGGPSSGEPPPSGTEEE-NH2 [Example 573] yielded pEC50 of 9.38

H-Y[Aib]QGT[αMePhe(2-F)]TSD[4Pal]SILLDKK([γGlu-γGlu-C18 diacid])AQ[Aib]AFIE[αMeY]LEEGGPSSGAPPPSGGGE-NH2 [Example 668] yielded pEC50 of 9.49
